# TARGET OR SYSTEM: hLigIV/XRCC4 (Homo sapiens)
# Sequence (P49917 whole entry): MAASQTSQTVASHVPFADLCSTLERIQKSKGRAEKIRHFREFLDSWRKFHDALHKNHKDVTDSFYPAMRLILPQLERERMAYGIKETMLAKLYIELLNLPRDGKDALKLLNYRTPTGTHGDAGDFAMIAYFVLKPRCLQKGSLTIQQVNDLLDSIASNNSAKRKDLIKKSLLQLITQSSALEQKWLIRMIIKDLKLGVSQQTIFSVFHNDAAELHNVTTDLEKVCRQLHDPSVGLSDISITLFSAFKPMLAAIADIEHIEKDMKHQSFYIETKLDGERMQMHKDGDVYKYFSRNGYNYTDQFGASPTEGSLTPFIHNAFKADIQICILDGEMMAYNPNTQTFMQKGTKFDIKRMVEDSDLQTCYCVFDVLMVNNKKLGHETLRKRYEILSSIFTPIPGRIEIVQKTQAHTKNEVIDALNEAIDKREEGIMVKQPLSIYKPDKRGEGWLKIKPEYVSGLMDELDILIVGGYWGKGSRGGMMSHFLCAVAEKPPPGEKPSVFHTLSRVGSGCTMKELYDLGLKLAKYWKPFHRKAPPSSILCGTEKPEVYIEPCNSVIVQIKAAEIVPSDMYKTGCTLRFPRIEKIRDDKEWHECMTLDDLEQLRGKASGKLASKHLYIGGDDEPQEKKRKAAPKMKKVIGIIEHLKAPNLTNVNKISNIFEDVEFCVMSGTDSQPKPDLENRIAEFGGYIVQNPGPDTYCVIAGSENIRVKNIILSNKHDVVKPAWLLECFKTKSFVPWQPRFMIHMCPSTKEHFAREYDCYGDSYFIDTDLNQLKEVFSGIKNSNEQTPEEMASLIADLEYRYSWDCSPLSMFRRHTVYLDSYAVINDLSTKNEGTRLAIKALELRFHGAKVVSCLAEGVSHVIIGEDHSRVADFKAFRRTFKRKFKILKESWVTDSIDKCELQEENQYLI
# Sequence (Q13426 whole entry partner): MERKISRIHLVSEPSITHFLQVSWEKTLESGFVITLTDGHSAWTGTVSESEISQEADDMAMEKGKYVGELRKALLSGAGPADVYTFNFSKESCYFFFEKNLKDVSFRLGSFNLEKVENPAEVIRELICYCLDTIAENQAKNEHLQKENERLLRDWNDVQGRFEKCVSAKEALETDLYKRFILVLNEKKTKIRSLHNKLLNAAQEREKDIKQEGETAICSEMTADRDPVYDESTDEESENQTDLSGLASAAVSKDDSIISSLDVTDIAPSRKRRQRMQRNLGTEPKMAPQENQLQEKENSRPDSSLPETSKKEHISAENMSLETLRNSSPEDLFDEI
# PROTOCOL NOTES: Radioactive gel-based DNA ligation assay
# Assay type: biochemical
PARAMETER: % activity Inhibition hLigIV gel (%)
Express your answer in %, writing the number without its unit.

Solved cases (2 shown):
INPUT: Form field: reported % activity Inhibition hLigIV gel of NS(=O)(=O)c1ccc(CCNC(=O)CCS(=O)(=O)c2ccc(Br)cc2)cc1 [Compound 113]
OUTPUT: 83

INPUT: Would you mind telling me what % activity Inhibition hLigIV gel value was observed for O=C(O)Cc1cncc(Br)c1 [Compound 122] ?
OUTPUT: 50

Others:
INPUT: // lookup % activity Inhibition hLigIV gel for O=C(O)CSc1cc(Cl)c2nonc2c1[N+](=O)[O-] [Compound 64]
OUTPUT: 66

INPUT: Which % activity Inhibition hLigIV gel is reported for this molecule? O=C(O)c1cnn2c(C(F)(F)F)cc(-c3ccco3)nc12 [Compound 215]
OUTPUT: 53

INPUT: Name the recorded % activity Inhibition hLigIV gel for Cc1oc(C(=O)O)cc1CSCc1cc(C(=O)O)c(C)o1 [Compound 197] .
OUTPUT: 100

INPUT: So what does the record say about % activity Inhibition hLigIV gel for Nc1nc(S)nc(O)c1/N=C/c1ccccc1 [Compound 189] ?
OUTPUT: 80

* * *

Readings of inhibition at 100 µM for the listed compounds
# TARGET OR SYSTEM: T4 DNA ligase (Enterobacteria phage T4, UniProt P00970)
# Construct: purchased NEB
# Sequence (P00970 whole entry): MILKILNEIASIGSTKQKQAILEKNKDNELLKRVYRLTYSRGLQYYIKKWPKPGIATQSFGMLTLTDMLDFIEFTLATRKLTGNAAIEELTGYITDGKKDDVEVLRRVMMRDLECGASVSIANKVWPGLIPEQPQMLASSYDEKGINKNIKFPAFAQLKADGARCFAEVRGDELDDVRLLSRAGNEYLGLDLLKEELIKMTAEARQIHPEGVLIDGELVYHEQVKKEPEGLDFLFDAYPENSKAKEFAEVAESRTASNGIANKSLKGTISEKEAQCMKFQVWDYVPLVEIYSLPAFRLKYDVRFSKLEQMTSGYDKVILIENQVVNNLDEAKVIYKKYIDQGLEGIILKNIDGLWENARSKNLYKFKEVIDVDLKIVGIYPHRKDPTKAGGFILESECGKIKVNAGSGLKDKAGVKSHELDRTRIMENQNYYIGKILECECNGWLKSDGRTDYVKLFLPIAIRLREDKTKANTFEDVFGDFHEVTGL
# PROTOCOL NOTES: High-throughput fluorescence-based DNA joining assay, non-specific inhibitor control
# Assay type: biochemical, bacteriophage T4
# MEASUREMENT SETUP: 100 μM; read-out: In vitro % inhib T4 100
Number only, in %; omit the unit.

See these solved cases before continuing.
INPUT: I have this compound here, `O=C(O)CSc1cc(Cl)c2nonc2c1[N+](=O)[O-]` , and I need its recorded inhibition at 100 µM.
OUTPUT: 18

INPUT: // returns reported inhibition at 100 µM for input `O=C(O)c1cnn2c(C(F)(F)F)cc(-c3ccco3)nc12`
OUTPUT: 0

INPUT: Suppose we examine the compound `COc1ccc(-c2cnc3c(O)nc(O)nc3n2)cc1` ; what inhibition at 100 µM value has been reported?
OUTPUT: 5

INPUT: Returns the measured inhibition at 100 µM for the input compound. Input: `O=C(c1ccc(O)cc1)c1ccccc1O`
OUTPUT: 0

Continuing:
INPUT: Look at this compound and give its reported inhibition at 100 µM. `O=C1Nc2c(C(=O)O)cccc2C1=O`
OUTPUT: 13

INPUT: I'd like to know its inhibition at 100 µM. The compound in question is `C/C(O)=C1/C(=O)N(c2nc3ccccc3s2)N=C1c1ccccc1`
OUTPUT: 0

INPUT: Dear colleague, I am looking for the recorded inhibition at 100 µM of the following compound: `O=c1[nH]ncc(N/N=C\c2ccc(O)c([N+](=O)[O-])c2)c1Cl`
OUTPUT: 14

INPUT: # input compound: `CCn1nc(N)c2c(O)nc(O)cc21` ; wanted: its inhibition at 100 µM
OUTPUT: 0

INPUT: Any idea what inhibition at 100 µM was measured for `Cc1c(Br)cc(NCC(=O)N/N=C\c2cc([N+](=O)[O-])ccc2O)cc1Br` ?
OUTPUT: 0

INPUT: So what's the measured inhibition at 100 µM for this one? `O=C(O)Cc1cncc(Br)c1`
OUTPUT: 0

* * *

# TARGET OR SYSTEM: human DNA ligase III (Homo sapiens)
# Sequence (P49916 1-862 isoform P49916-4): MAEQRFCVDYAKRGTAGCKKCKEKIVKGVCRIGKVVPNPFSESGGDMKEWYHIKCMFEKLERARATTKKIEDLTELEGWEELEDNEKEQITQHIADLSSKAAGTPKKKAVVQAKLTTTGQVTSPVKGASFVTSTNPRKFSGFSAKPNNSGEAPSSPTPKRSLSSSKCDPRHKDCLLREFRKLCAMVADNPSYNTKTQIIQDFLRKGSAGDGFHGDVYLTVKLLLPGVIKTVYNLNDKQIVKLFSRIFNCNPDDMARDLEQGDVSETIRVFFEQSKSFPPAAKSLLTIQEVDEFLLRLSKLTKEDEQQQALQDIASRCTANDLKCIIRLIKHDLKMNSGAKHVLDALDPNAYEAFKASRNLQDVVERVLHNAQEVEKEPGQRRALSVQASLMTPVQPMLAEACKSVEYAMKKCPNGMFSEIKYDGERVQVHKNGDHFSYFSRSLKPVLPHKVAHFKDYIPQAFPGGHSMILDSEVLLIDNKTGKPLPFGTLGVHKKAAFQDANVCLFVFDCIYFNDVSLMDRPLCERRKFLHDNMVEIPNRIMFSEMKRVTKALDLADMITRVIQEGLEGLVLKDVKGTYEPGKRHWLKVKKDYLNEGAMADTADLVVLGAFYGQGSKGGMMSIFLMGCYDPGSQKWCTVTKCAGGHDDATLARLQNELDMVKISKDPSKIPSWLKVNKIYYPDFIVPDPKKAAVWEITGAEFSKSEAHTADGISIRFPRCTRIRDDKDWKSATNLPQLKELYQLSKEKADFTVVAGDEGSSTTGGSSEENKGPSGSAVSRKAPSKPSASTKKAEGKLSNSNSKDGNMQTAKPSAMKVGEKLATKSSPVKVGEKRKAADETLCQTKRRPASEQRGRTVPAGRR
# PROTOCOL NOTES: High-throughput fluorescence-based DNA joining (ligation) assay
# Type: biochemical
# MEASUREMENT SETUP: read-out: % of inhibition @ 100 μM (Helen's data) hLigIII
PARAMETER: inhibition at 100 µM

INPUT: # inhibition at 100 µM lookup, item `O=C(O)c1ccccc1Nc1ccc([N+](=O)[O-])c2nonc12`
OUTPUT: < 20%

Further cases:
INPUT: Query: inhibition at 100 µM; subject: `O=c1[nH]cc(/C=N/Nc2ncnc3[nH]cnc23)c(=O)[nH]1`
OUTPUT: 24%

INPUT: Consider the compound `C=CCN1C(=O)/C(=C\c2ccccc2C(=O)O)SC1=S` and give its measured inhibition at 100 µM.
OUTPUT: < 20%

INPUT: For the compound `O=C(O)c1ccc([N+](=O)[O-])c(C(=O)O)n1` , what inhibition at 100 µM is on record?
OUTPUT: < 20%

INPUT: Please look up its inhibition at 100 µM: `Oc1nn(-c2ccc(Br)cc2)cc1Br`
OUTPUT: < 20%

INPUT: Quick one: inhibition at 100 µM for `O=C(Cn1cnc([N+](=O)[O-])n1)N/N=C/c1ccc(O)cc1O` ?
OUTPUT: < 20%

INPUT: Need inhibition at 100 µM, item `O=C1Nc2ccccc2Oc2cc([N+](=O)[O-])cc([N+](=O)[O-])c21`
OUTPUT: > 40%

INPUT: Value lookup for inhibition at 100 µM; key = `O=C1NC(=S)NC(=O)C1=NNc1cccc(C(=O)O)c1`
OUTPUT: < 20%

INPUT: Recorded inhibition at 100 µM of `Cc1oc(C(=O)O)cc1CSCc1cc(C(=O)O)c(C)o1` , please.
OUTPUT: 97%

INPUT: // query inhibition at 100 µM value for entry `Cc1c(Br)cc(NCC(=O)N/N=C\c2cc([N+](=O)[O-])ccc2O)cc1Br`
OUTPUT: 88%

* * *

# TARGET OR SYSTEM: hLigI (Homo sapiens)
# Construct: made in house
# Sequence (P18858 whole entry): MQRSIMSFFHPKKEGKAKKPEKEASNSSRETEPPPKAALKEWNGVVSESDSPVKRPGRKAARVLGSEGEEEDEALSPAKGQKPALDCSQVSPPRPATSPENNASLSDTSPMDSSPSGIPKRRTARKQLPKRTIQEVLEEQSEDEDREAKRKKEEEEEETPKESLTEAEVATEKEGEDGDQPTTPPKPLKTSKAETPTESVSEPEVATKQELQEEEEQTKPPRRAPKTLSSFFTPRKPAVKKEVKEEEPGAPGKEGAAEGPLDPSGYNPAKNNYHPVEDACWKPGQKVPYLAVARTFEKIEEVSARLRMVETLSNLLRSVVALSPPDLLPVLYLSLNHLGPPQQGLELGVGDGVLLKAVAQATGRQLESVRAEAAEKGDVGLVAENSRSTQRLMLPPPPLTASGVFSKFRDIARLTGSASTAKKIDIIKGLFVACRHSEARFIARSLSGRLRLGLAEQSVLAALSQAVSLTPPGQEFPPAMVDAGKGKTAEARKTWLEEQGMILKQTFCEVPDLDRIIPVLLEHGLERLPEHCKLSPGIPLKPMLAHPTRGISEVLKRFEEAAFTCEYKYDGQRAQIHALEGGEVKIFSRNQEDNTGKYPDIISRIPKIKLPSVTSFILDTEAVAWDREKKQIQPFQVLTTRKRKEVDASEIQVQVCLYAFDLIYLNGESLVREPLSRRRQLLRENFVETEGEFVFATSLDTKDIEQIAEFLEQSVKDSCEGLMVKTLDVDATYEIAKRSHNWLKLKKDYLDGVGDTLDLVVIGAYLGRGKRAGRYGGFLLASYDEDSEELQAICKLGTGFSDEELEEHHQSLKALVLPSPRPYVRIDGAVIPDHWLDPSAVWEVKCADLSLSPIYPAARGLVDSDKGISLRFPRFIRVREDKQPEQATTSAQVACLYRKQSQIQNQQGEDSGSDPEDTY
# PROTOCOL NOTES: High-throughput fluorescence-based DNA joining (ligation) assay
# Format: biochemical
# MEASUREMENT SETUP: 100 μM; read-out: In vitro % inhib hLigI 100
Examples of molecules with documented inhibition at 100 µM follow.

Completed entries (count: 4):
INPUT: API: value(readout=inhibition at 100 µM, system=hLigI (Homo sapiens)) for record `C/C(O)=C1/C(=O)N(c2nc3ccccc3s2)N=C1c1ccccc1`
OUTPUT: 29%

INPUT: Lookup: inhibition at 100 µM / hLigI (Homo sapiens) / `Cc1oc(C(=O)O)cc1CSCc1cc(C(=O)O)c(C)o1`
OUTPUT: 91%

INPUT: Form field - read-out: inhibition at 100 µM; system: hLigI (Homo sapiens); submitted item: `Cc1c(Br)cc(NCC(=O)N/N=C\c2cc([N+](=O)[O-])ccc2O)cc1Br`
OUTPUT: 78%

INPUT: Form field: inhibition at 100 µM recorded for `O=c1[nH]ncc(N/N=C\c2ccc(O)c([N+](=O)[O-])c2)c1Cl` with hLigI (Homo sapiens) (enter value)
OUTPUT: 60%

Now look at this entry.
INPUT: Find inhibition at 100 µM (hLigI (Homo sapiens)) for the entry `O=C(O)CSc1cc(Cl)c2nonc2c1[N+](=O)[O-]`
OUTPUT: 61%

* * *

# Tested on: MCF10A cells
# PROTOCOL NOTES: MTT cell growth assay
# Type: cell-based, human
# MEASUREMENT SETUP: Homo sapiens, MCF-10A; sections 'high concentrations (~50 μM)' and 'active in vitro that decreased cell growth'; same figures given in μM elsewhere in Table 6; read-out: IC50 MCF10A (head without unit)
PARAMETER: IC50 (µM)
Please state the figure in µM; there is no need to write the unit.

INPUT: // IC50 lookup, key: `C=CCN1C(=O)/C(=N\NC(=O)c2ccccc2O)c2ccccc21`
OUTPUT: 7.5

INPUT: Item `Nn1cnnc1N/N=C/c1cc([N+](=O)[O-])c(Cl)cc1Cl` has what recorded IC50?
OUTPUT: 3

INPUT: I'd like to know its IC50. The molecule in question is `O=C(Cn1cnc([N+](=O)[O-])n1)N/N=C/c1ccc(O)cc1O`
OUTPUT: 6

INPUT: Which IC50 reading was recorded for the molecule `O=c1[nH]cc(/C=N/Nc2ncnc3[nH]cnc23)c(=O)[nH]1` ?
OUTPUT: 40

INPUT: Any idea what IC50 was measured for `O=C1Nc2ccccc2Oc2cc([N+](=O)[O-])cc([N+](=O)[O-])c21` ?
OUTPUT: 3

INPUT: So what does the record say about IC50 for `Cc1c(Br)cc(NCC(=O)N/N=C\c2cc([N+](=O)[O-])ccc2O)cc1Br` ?
OUTPUT: 4

INPUT: # query: IC50 of entry `O=C(Nc1nc2ccccc2s1)c1ccc(Cl)c([N+](=O)[O-])c1`
OUTPUT: 3

In the following, a different molecule is considered.
INPUT: Return reported IC50; argument: `O=C(O)CSc1cc(Cl)c2nonc2c1[N+](=O)[O-]`
OUTPUT: 50
